Assay: Whole blood stability, human
Format: in vitro ADME
Settings: 30 min
Assay Readout: Whole Blood Stability % Remaining at 37° C. Human (%)
Give bare numbers, in %.

// solved cases for Whole Blood Stability % Remaining at 37° C. Human follow
COC(=O)[C@H]1Cc2c([nH]c3ccccc23)[C@H](c2ccc(S(=O)(=O)N[C@]34C[C@H]5C[C@H](C[C@H](C5)C3)C4)cc2)N1C(=O)/C=C/CCl [Compound 30] | 62.1
CC(=O)Nc1ccc([C@H]2c3[nH]c4ccccc4c3C[C@H](C(=O)N(C)C)N2C(=O)CCl)cc1 [Compound 71] | 80.4
COC(=O)[C@H]1Cc2c([nH]c3ccccc23)[C@@H](c2ccc(OC(=O)C(C)(C)C)cc2)N1C(=O)CCl [Compound 13a] | 56.6
COc1ccc2[nH]c3c(c2c1)C[C@H](C)N(C(=O)CCl)[C@H]3c1ccc(N2CCOCC2)cc1 [Compound 121] | 90.3
COC(=O)[C@H]1Cc2c([nH]c3ccccc23)[C@H](c2ccc(S(=O)(=O)N(C)C)cc2)N1C(=O)CCl [Compound 23] | 48.9

Problem: Data request, read-out Whole Blood Stability % Remaining at 37° C. Human, for COC(=O)[C@H]1Cc2c([nH]c3ccccc23)[C@H](c2ccc(S(=O)(=O)N3CC(O)C3)cc2)N1C(=O)CCl [Compound 37]
Solution: 37.8

====

Tested on: SJSA-1
Assay: Cell proliferation (Alamar Blue) assay, SJSA-1 osteosarcoma, with/without ferrostatin
Assay type: cell-based, human
Conditions: Homo sapiens, SJSA-1, Cell Line SJSA-1; read-out: IC50
Assay Readout: pIC50
Answers are plain numbers, as −log10 of the molar value.

Cc1cc(N2CCOCC2)ccc1[C@H]1c2[nH]c3ccccc3c2C[C@H](C)N1C(=O)CCl | 5.41

Batch request: pIC50 per item, same order as input.
1. C#CC(=O)N1[C@@H](c2ccc(F)cc2)c2[nH]c3ccccc3c2C[C@@H]1C
2. C#CC(=O)N1[C@@H](CCCC)Cc2c([nH]c3ccccc23)[C@@H]1c1ccc(N2CCOCC2)cc1
3. COc1ccc2c(c1)C[C@H](C)N(C(=O)CCl)[C@H]2c1ccc(C(=O)NC2CC2)cc1

Solution:
1: 6.33; 2: 6.79; 3: 6.42

Please state, for each entry, its recorded pIC50.
1. C#CC(=O)N1[C@@H](c2ccc(S(=O)(=O)NC3CC3)cc2F)c2[nH]c3ccccc3c2C[C@@H]1C
2. COC[C@H]1Cc2c([nH]c3ccccc23)C(c2ccc(C(=O)NC3CC3)cc2F)N1C(=O)CCl (stereo partly shown)

Solution:
1: 7.04; 2: 7.07

====

Assign IC50 to each entry below.
System: SK-OV-3
Test: Cell viability assay (CellTiter Glo), ovarian cancer cell line SK-OV-3
Format: cell-based
Conditions: Homo sapiens, 96 hours
Answers are plain numbers, in nM.

Sample records with IC50:
C[C@H]1Cc2c([nH]c3ccccc23)[C@H](c2ccc(N3CCOCC3)cc2)N1C(=O)CCl | 113
COC(=O)[C@H]1Cc2c([nH]c3ccccc23)[C@H](c2ccc(NCC3CC3)cc2)N1C(=O)CCl | 230
C[C@H]1Cc2c([nH]c3ccccc23)[C@H](c2ccc(C3CCCC3)cc2)N1C(=O)CCl | 63
COC(=O)c1ccc([C@H]2c3[nH]c4ccc(OC)cc4c3C[C@H](C)N2C(=O)CCl)cc1 | 146
C[C@H]1Cc2c([nH]c3ccccc23)[C@H](c2ccc(C3CCCCC3)cc2)N1C(=O)CCl | 53

# batch size: 6; output IC50 per entry
1. COC(=O)c1ccc([C@@H]2c3[nH]c4ccc(Cl)cc4c3C[C@H](C(=O)OC)N2C(=O)CCl)cc1
2. COC(=O)[C@H]1Cc2c([nH]c3ccccc23)[C@H](c2ccc(S(=O)(=O)N[C@]34C[C@H]5C[C@H](C[C@H](C5)C3)C4)cc2)N1C(=O)CCl
3. C[C@H]1Cc2c([nH]c3ccccc23)[C@H](c2ccc(C(=O)N[C@]34CC5C[C@H](C[C@H](C5)C3)C4)cc2)N1C(=O)CCl
4. COC(=O)c1ccc([C@@H]2c3[nH]c4ccc(F)cc4c3C[C@H](C(=O)OC)N2C(=O)CCl)cc1
5. C[C@H]1Cc2c([nH]c3ccccc23)[C@H](c2ccc(S(=O)(=O)N[C@]34CC5C[C@H](C[C@H](C5)C3)C4)cc2)N1C(=O)CCl
6. COC(=O)[C@H]1Cc2c([nH]c3ccccc23)[C@H](c2ccc(N[C@]34CC5C[C@H](C[C@H](C5)C3)C4)cc2)N1C(=O)CCl

Solution:
18
17
13
47
114
12

Fill in IC50 for each of the 3 compounds listed.
1. COC(=O)c1ccc([C@H]2c3[nH]c4ccccc4c3C[C@H](C(=O)OC)N2C(=O)CCl)cc1 [Example K601, RSL3, reference compound]
2. C[C@H]1Cc2c([nH]c3ccccc23)[C@H](c2ccc([Si](C)(C)C)cc2)N1C(=O)CCl
3. C[C@H]1Cc2c([nH]c3ccccc23)[C@H](c2ccc(C3CCOCC3)cc2)N1C(=O)CCl

Solution:
1. 142
2. 87
3. 102

Problem: Item under review: "CC[C@H]1Cc2c([nH]c3ccccc23)[C@H](c2ccc(C(=O)OC)cc2)N1C(=O)CCl" . Reported IC50?
Solution: 30

====

For each of the compounds below, state its Whole Blood Stability % Remaining at 37° C. Human.
Test: Whole blood stability, human
Assay type: in vitro ADME
Settings: 30 min
Give bare numbers, in %.

Examples with answers:
CC(C)N(C(=O)[C@H]1Cc2c([nH]c3ccccc23)[C@H](c2ccc(C(=O)N(C)C)cc2)N1C(=O)CCl)C(C)C [Compound 39] | 64.5
CN(C)C(=O)[C@H]1Cc2c([nH]c3ccccc23)[C@H](c2ccc(S(C)(=O)=O)cc2)N1C(=O)CCl [Compound 59] | 48.9
COC(=O)[C@H]1Cc2c([nH]c3ccccc23)[C@H](c2ccc(C(=O)NCCN3CCOCC3)cc2)N1C(=O)CCl [Compound 27] | 63.9
C[C@H]1Cc2c([nH]c3ccc(F)cc23)[C@H](c2ccc(N3CCOCC3)cc2)N1C(=O)CCl [Compound 114] | 88.1
CN(C)C(=O)c1ccc([C@H]2c3[nH]c4ccccc4c3C[C@H](C(N)=O)N2C(=O)CCl)cc1 [Compound 58] | 64.4

Hi, could you look up Whole Blood Stability % Remaining at 37° C. Human for each item in my list?
1. CN(C)C(=O)[C@H]1Cc2c([nH]c3ccccc23)[C@H](c2ccc([Si](C)(C)C)cc2)N1C(=O)CCl [Compound 67]
2. COC(=O)c1cccc([C@H]2c3[nH]c4ccccc4c3C[C@H](C(=O)OC)N2C(=O)CCl)c1 [Compound 100]

Solution:
1: 56.8; 2: 60.9

Please state Whole Blood Stability % Remaining at 37° C. Human for every compound in the list that follows.
1. [2H]C([2H])(Cl)C(=O)N1[C@@H](c2ccc(C(=O)OC(C)(C)C)cc2)c2[nH]c3ccccc3c2C[C@@H]1C(=O)OC [BZ]
2. COC(=O)[C@H]1Cc2c([nH]c3ccccc23)[C@H](c2ccc(S(=O)(=O)N[C@]34C[C@H]5C[C@H](C[C@H](C5)C3)C4)cc2)N1C(=O)CCl [Compound 24]
3. COC(=O)c1ccc([C@H]2c3[nH]c4cc(Br)ccc4c3C[C@H](C(=O)OC)N2C(=O)CCl)cc1 [Compound 96]
4. CN(C)C(=O)[C@H]1Cc2c([nH]c3ccccc23)[C@H](c2ccc(S(=O)(=O)C3CCCC3)cc2)N1C(=O)CCl [Compound 69]
5. COC(=O)[C@H]1Cc2c([nH]c3ccccc23)[C@H](c2ccc(C(=O)OCC3CCC3)cc2)N1C(=O)CCl [Compound 85]
6. CN(C)C(=O)[C@H]1Cc2c([nH]c3ccccc23)[C@H](c2ccc(S(=O)(=O)C(C)(C)C)cc2)N1C(=O)CCl [Compound 68]
7. CC(C)OC(=O)[C@H]1Cc2c([nH]c3ccccc23)[C@H](c2ccc(C(=O)OC(C)(C)C)cc2)N1C(=O)CCl [Compound 20]

Solution:
73.5
61.7
29.1
48.4
73.5
36.8
50.7

====

Test: Whole blood stability, mouse
Assay type: in vitro ADME
Conditions: 30 min
The label met is reserved for Whole Blood Stability % Remaining at 37° C. Mouse strictly under 70%; not met covers values equal to or above it.

Illustrative cases are given below, each with its answer.
C[C@H]1Cc2c([nH]c3ccccc23)[C@H](c2ccc(C(=O)N[C@]34CC5C[C@H](C[C@H](C5)C3)C4)cc2)N1C(=O)CCl | not met
COC(=O)c1cccc([C@H]2c3[nH]c4ccccc4c3C[C@H](C(=O)OC)N2C(=O)CCl)c1 | met
C[C@H]1Cc2c([nH]c3ccccc23)[C@H](c2ccc(C3CCCCC3)cc2)N1C(=O)CCl | not met
COC(=O)c1ccc([C@H]2c3[nH]c4cc(Br)ccc4c3C[C@H](C(=O)OC)N2C(=O)CCl)cc1 | met
COC(=O)c1ccc([C@@H]2c3[nH]c4ccc(F)cc4c3C[C@H](C(=O)OC)N2C(=O)CCl)cc1 | met
COC(=O)[C@H]1Cc2c([nH]c3ccccc23)[C@H](c2ccc(C(=O)OCC3CCC3)cc2)N1C(=O)CCl | met

Problem: Report whether reported Whole Blood Stability % Remaining at 37° C. Mouse is lower than 70% (strictly) for "C[C@H]1Cc2c([nH]c3ccccc23)[C@H](c2ccc(NCC3CC3)cc2)N1C(=O)CCl"
Solution: not met

Problem: Whole Blood Stability % Remaining at 37° C. Mouse under 70%? Item: "COC(=O)[C@H]1Cc2c([nH]c3ccccc23)[C@H](c2ccc(C(=O)N3CCOCC3)cc2)N1C(=O)CCl"
Solution: met

Problem: Input "COC(=O)[C@H]1Cc2c([nH]c3ccccc23)[C@H](c2ccc(C(=O)OC[C@]34C[C@H]5C[C@H](C[C@H](C5)C3)C4)cc2)N1C(=O)CCl" ; condition: Whole Blood Stability % Remaining at 37° C. Mouse strictly below 70%. Does it hold?
Solution: met

Problem: Dear reviewer, please state whether COC(=O)[C@H]1Cc2c([nH]c3ccccc23)[C@@H](c2ccc(S(=O)(=O)N(C)C)cc2)N1C(=O)CCl [Compound 23a] has Whole Blood Stability % Remaining at 37° C. Mouse strictly beneath 70%.
Solution: not met
